Sourced from the supplement of paper PMC7877785

Each entry below lists one item and its recorded self-splicing fitness (ln) value.
assay: self-splicing fitness, log relative to wild type (ln ratio); higher = more splicing; Tetrahymena group I intron in knt gene, E. coli kanamycin selection, DiMSum; sequences stand for … in CUCUCU…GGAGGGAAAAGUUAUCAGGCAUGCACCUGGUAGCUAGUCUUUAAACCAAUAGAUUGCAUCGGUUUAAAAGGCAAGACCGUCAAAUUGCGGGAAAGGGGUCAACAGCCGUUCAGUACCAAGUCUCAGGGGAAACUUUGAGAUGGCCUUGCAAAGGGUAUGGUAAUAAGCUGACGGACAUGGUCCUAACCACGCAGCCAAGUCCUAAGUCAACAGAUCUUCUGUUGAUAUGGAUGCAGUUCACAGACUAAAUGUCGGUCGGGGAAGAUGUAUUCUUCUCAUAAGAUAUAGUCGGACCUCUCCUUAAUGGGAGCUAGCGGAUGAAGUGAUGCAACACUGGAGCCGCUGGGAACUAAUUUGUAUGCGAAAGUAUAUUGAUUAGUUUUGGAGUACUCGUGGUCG; conditions: 37 °C;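 also: selection with 25 µg/mL kanamycin versus none on LB agar overnight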

AUUGAGCAAUAUUACGUGUU
-2.34

Lab book: self-splicing fitness (ln) of `CUAGAGCAAUAUUACGACGG` noted as 0.393

Recorded self-splicing fitness (ln) (sequence `CAAUAGCAAUAUUACGUGUC` ): -3.28

Form: sequence = `UGUAAGCAAUAUUACGAAAG` ; self-splicing fitness (ln) = -2.75

Briefly, self-splicing fitness (ln) measured for `CACUAGCAAUAUUACGUAGA` : -1.81

Data point: `UCGAAGCAAUAUUACGUAUA` ; self-splicing fitness (ln) = -1.58

Note to self: self-splicing fitness (ln) recorded for `CAAAAGCAAUAUUACGGAAU` was -2.56

Measured self-splicing fitness (ln) of `CAGCAGCAAUAUUACGAAAU` : -2.97

====

Entries and their self-splicing fitness (ln) values follow.
assay: self-splicing fitness, log relative to wild type (ln ratio); higher = more splicing; Tetrahymena group I intron in knt gene, E. coli kanamycin selection, DiMSum; sequences stand for … in CUCUCU…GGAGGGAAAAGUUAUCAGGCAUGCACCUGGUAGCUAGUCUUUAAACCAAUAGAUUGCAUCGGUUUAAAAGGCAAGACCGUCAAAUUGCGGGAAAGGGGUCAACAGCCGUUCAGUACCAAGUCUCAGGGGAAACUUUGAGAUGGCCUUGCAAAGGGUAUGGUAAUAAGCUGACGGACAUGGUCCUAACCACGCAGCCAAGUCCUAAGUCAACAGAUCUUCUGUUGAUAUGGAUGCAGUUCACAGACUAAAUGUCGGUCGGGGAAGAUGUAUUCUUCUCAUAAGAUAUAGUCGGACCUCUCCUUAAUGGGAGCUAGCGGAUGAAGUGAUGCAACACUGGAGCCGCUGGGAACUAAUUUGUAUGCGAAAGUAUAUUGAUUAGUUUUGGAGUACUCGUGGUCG; conditions: 37 °C

Here's what some known entries look like.
ACCCAGCAAUAUUACGACCC
0.555
GCUGAGCAAUAUUACGACGG
-0.245
ACUAAGCAAUAUUACGCGUA
-0.501
GUUUAGCAAUAUUACGAUUA
-1.01
CAGGAGCAAUAUUACGCGAA
-2.07
ACCCAGCAAUAUUACGGUUG
-2.3
CAGGAGCAAUAUUACGACUG
-2.83
AAAGAGCAAUAUUACGAGAG
-3.42

The sequence listed as `GUGUAGCAAUAUUACGUUGA` shows self-splicing fitness (ln) equal to -3.07

Given item `CAUGAGCAAUAUUACGACAA` , the value recorded as its self-splicing fitness (ln) is -1.36

The recorded self-splicing fitness (ln) for entry `UGAAAGCAAUAUUACGGCUC` equals -0.842

The reported self-splicing fitness (ln) of the sequence `AGUGAGCAAUAUUACGCCAU` was -0.383

self-splicing fitness (ln) in this record for `CGAAAGCAAUAUUACGGCUG` : 0.181

Notebook: `ACCUAGCAAUAUUACGGCAA` , self-splicing fitness (ln) read as 0.02

For `AACAAGCAAUAUUACGCGUA` the sequence record lists self-splicing fitness (ln) as -0.921

For `UUAUAGCAAUAUUACGCCAG` the sequence record lists self-splicing fitness (ln) as -0.566
